Recorded Antagonist Activity in CV-1 Efficacy by entry
TEST TARGET: androgen receptor (AR) (Homo sapiens)
METHOD DESCRIPTION: AR antagonist luciferase gene reporter assay (AR plasmid pSVAR0 + MMTV-Luc, DHT at EC80)
MEASURED METRIC: Antagonist Activity in CV-1 Efficacy

* CC1(CO)C(=O)N(c2ccc(C#N)c(C(F)(F)F)c2)C(=S)N1c1ccc(Br)cc1 (centres unmarked) | 86 ± 6.5%
* COC(=O)c1ccc(N2C(=S)N(c3ccc(C#N)c(C(F)(F)F)c3)C(=O)C2(C)CO)cc1 (centres unmarked) | 95 ± 4.2%
* CC1(CO)C(=O)N(c2ccc(C#N)c(C(F)(F)F)c2)C(=O)N1c1ccc(Br)cc1 (centres unmarked) | 95 ± 11.2%
* CN1CCC(Oc2ccc(N3C(=S)N(c4ccc(C#N)c(C(F)(F)F)c4)C(=O)C3(C)CO)cc2)CC1 (centres unmarked) | 92 ± 2.9%
* CC1(CO)C(=O)N(c2cnc(C#N)c(C(F)(F)F)c2)C(=S)N1c1ccccc1 (centres unmarked) [19a] | 61.27 ± 12.44%
* Cc1ccc(N2C(=S)N(c3ccc(C#N)c(C(F)(F)F)c3)C(=O)C2(C)CO)cc1 (centres unmarked) | 86 ± 4.2%
* CC1(CO)C(=O)N(c2ccc(C#N)c(C(F)(F)F)c2)C(=O)N1c1ccc(O)cc1 (centres unmarked) [11b] | 100 ± 3.4%
* CC1(CO)C(=O)N(c2ccc(C#N)c(C(F)(F)F)c2)C(=O)N1c1ccc(C#N)cc1 (centres unmarked) | 98 ± 11.6%

* * *

TEST TARGET: androgen receptor (AR) (Homo sapiens)
Sequence (P10275 1-920): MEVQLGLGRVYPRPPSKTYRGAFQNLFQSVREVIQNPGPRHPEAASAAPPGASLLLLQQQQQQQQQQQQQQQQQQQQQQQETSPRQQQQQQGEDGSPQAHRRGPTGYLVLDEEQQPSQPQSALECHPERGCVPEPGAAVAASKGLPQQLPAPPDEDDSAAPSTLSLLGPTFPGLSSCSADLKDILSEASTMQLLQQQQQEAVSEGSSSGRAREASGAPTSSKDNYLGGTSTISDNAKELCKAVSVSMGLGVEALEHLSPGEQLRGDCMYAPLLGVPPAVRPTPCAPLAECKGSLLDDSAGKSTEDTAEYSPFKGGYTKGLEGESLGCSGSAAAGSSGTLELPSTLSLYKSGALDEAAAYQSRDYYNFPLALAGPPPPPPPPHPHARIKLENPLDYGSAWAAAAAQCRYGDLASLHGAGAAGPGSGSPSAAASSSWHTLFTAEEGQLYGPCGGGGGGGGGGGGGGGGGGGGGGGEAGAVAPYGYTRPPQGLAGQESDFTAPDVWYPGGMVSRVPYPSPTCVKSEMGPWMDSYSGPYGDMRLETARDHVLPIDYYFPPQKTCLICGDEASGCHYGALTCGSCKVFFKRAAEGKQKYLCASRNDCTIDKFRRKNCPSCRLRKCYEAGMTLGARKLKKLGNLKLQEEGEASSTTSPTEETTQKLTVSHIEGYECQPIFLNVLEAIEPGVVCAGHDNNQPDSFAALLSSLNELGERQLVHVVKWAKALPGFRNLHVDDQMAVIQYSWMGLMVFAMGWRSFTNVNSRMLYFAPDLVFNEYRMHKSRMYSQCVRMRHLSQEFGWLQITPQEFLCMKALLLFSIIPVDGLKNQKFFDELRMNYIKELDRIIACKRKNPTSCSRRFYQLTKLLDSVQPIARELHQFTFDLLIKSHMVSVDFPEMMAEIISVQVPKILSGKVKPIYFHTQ
METHOD DESCRIPTION: AR antagonist luciferase gene reporter assay (AR plasmid pSVAR0 + MMTV-Luc, DHT at EC80)
MEASURED METRIC: Antagonist Activity in CV-1 Efficacy

• COc1ccc(N2C(=O)N(c3ccc(C#N)c(C(F)(F)F)c3)C(=O)C2(C)CO)cc1 (centres unmarked) = 90 ± 13.3%
• COc1ccc(N2C(=S)N(c3ccc(C#N)c(C(F)(F)F)c3)C(=O)C2(C)CO)cc1 (centres unmarked) = 89 ± 3.7%
• CC1(CO)C(=O)N(c2ccc(C#N)c(C(F)(F)F)c2)C(=S)N1c1ccc(O)cc1 (centres unmarked) [11a] = 90 ± 7.5%
• CC1(CO)C(=O)N(c2ccc(C#N)c(C(F)(F)F)c2)C(=O)N1c1ccc(F)cc1 (centres unmarked) = 94 ± 14.6%
• CC1(CO)C(=O)N(c2ccc(C#N)c(C(F)(F)F)c2)C(=O)N1c1ccccc1 (centres unmarked) = 101 ± 15.1%
